Type: physicochemical
Conditions: buffer
endpoint.label: T1/2, temperature where 50% of the protein was unfolded, Buffer plus Fe2+ and aKG (°C)
Give the value, in units of °C, as a plain number.

Lookup: Give its T1/2, temperature where 50% of the protein was unfolded, Buffer plus Fe2+ and aKG value. Item: MON-HT4: engineered oxygenase protein, amino acid sequence SEQ ID NO:25 (protein) MHAALTPLTNKYRFIDVQPLTGVLGAEITGVDLREPLDDSTWNEILDAFHTYQVIYFPGQAITNEQHIAFSRRFGPVDPVPLLKSIEGYPEVQMIRREANESGRVIGDDWHTDSTFLDAPPAAVVMYAREVPPYGGDTGFLSMYTAWETLSPTMQATIEGLNVVHSATRVFGSLYQAQNRRYSNTSVKVMDVDAGDRETVHPLVVSHPVTGRRALYCNQVYCQRIEGMTDAESKSLLQFLYEHATKFDFTCRVRWKKDQVLVWDNLCTMHRAVPDYAGKFRYLTRTTVAGDKPSR
Found: 44
